- Test system: PfAP2-LT AP2 domain (GST-tagged)
- Assay notes: gcPBM binding intensity (ln(normalized median fluorescence intensity)); higher = stronger DNA binding
The full ranking holds about 25,000 sequences; the median of “ln(normalized median fluorescence intensity)” is about 8.9, and the highest 2% start at about 10. The entries come from a sample that favours the highest values as a whole.
Observation type: gcPBM binding intensity (ln)

1) AAAAAACAAAAACACACGCACACAAAAAAAAAAAAA [CACACA_site802] : 9.4
2) TTTAACGTTGAATATACACACATATATATATATATA [CACACA_site3698] : 9.55
3) TATGTGCACCCATGTACATGCGGACATATGTTATAT [TGCATGCA_site383] : 9.04
4) ATAATATGAAAACACACACACACACTAGAAAAAAAA [CACACA_site5153] : 10.2
5) TATAATATAAGGATCACACACAAACACCCATATATA [CACACA_site4468] : 9.56
6) CACGCATACGGACACACACACACACCGATATATATA [CACACA_site4521] : 9.89
7) TAAATTTTTATTTGTAGTACTATATATATATATATA [XGTACX_site1026] : 8.9
8) TAAAATATAGAAAATTTTATTAAATATAAAAAAATA [CACACA_negctrl_site1441] : 8.28
9) TTTTTTTTTTTGTGGGTGCGTTTATAAAAACAGGAA : 8.42
10) AATACACGCAAACACACACACACACCCACATATATA [CACACA_site638] : 10.3
11) ATAATTATATTTAGTGGTACTACTTTTGATAATTAG [XGTACX_site6562] : 8.63
12) ATGTACCTATTTCATACACACACACCCACAAACAAA [CACACA_site8232] : 9.66
13) TTAGGTTATAAATACACACACAAAAGAAAAAAAAAA [CACACA_site5625] : 9.23
14) TTTATTTCCTTTTTGTGTACATATATATGTAATTCA [XGTACX_site1718] : 8.78
15) AATATAAGCAAATACACACACACATATATATATATA [CACACA_site3805] : 10.3
16) ATTTAATTTTCCAAATGTACTTATATTTTTATGAAA [XGTACX_site6144] : 8.27
17) AAACAAAAAAAATAAGCACACATATATATATATATA [CACACA_site8173] : 9.6
18) AATAATAAACACAATCAAATAAAATATGAAATATAA [GTGCAC_negctrl_site307] : 8.84
19) AATTAACAAAGACACACACACACACGCACAAAAAAA [CACACA_site6388] : 10.2
20) CACGCATACAGACACACACACACACCCATATATATA [CACACA_site636] : 10.2
21) TTCTTATATTGTACAGTACACACCTTTATAATGTTA [CACACA_site7953] : 9.15
22) TATATCTCATAGTATACACACACACCCACCCACATA [CACACA_site8513] : 9.9
23) TTAACAAATAGACACACACACACACGCAAAAAAAAA [CACACA_site6387] : 10.3
24) CACGCATACAGACACACACACACACCGATATATATA [CACACA_site8113] : 10.1
25) AATATAAGCAAATACACACACACATATAAATATGTA [CACACA_site7741] : 9.85
26) CATACACCCATACATACACACATACAGATATATATA [CACACA_site5123] : 9.29
27) AAAACATAACATTGTTGTACTACTAATAAAATAAGT [XGTACX_site6149] : 8.8
28) ATTTCAAATTAATTTACACACTTCATACTAAAAGAC [CACACA_site3176] : 8.71
29) TATCTCATAGTATACACACACACACCCACCCATATA [CACACA_site1739] : 10.1
30) AGCAAATACAAACACACACACACATATACATATATA [CACACA_site3497] : 10.1
31) AATAAAGCAATAAATACACACATATATATATATATA [CACACA_site2934] : 9.96
32) ATTTTAACTCCCCTTAATCTATTGTATATATATATA [CACACA_negctrl_site208] : 8.88
33) ATATTTAGGAAAAATAGTACACATTTAAATAATAAT [XGTACX_site7989] : 8.68
34) GTATATTGTACCATCACACATGTAAAACATAGATGT [CACACA_site5359] : 8.94
35) ACAAAATAAAGACACACACACAAACACAAAAAAATA [CACACA_site7568] : 10.1
36) ATATATATATATAACACACGCAAAAAAATTAAATAA [CACACA_site1400] : 9.16
37) AAAAAAATAAAAAATATATAAATAATTAATACATGT [GTGCAC_negctrl_site633] : 8.62
38) TATTTATTAAGACACACACACACACGCACAAAATAA [CACACA_site6254] : 10.3
